# system tested: human OX2R (Homo sapiens)
# Construct: expressed in transfected cells; host or cells: CHO (Chinese hamster ovary) cells, line CHOOX2R, co-expressing NFAT-luciferase
# Sequence (O43614 1-444): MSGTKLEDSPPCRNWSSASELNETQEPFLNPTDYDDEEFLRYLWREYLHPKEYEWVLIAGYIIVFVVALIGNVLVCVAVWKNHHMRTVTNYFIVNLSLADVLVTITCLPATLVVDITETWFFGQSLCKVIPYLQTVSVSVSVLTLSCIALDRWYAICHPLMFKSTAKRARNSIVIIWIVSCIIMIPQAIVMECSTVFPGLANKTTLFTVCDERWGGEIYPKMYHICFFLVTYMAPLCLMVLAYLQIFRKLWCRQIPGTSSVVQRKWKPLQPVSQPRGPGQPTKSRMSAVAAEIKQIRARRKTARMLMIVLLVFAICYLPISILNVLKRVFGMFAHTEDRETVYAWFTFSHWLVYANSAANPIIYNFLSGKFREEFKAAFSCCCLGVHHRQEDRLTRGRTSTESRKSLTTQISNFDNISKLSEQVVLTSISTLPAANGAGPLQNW
# protocol text: Agonist activity against OX2R: intracellular calcium (Fura-2AM, FDSS7000) in CHOOX2R cells
# Format: cell-based
# condition info: test compound 0.1 μM; relative to orexin-A as full agonist (100%)
Recorded Response (%) OX2R by entry

Answered examples (2):
COc1ccc(C(=O)N(C)C)cc1S(=O)(=O)Nc1cccc(NC(=O)Nc2ccccc2N(C)C)c1	<5%
CN(C)C(=O)c1cccc(-c2ccc(O)c(S(=O)(=O)Nc3cccc(NC(=O)Nc4cccc(N(C)C)c4)c3)c2)c1	<5%

Alright, here's another molecule for you.
// returns Response (%) OX2R for `CCN(Cc1cccnc1)C(=O)c1ccc(OC)c(S(=O)(=O)Nc2cccc(NC(=O)Nc3ccccc3N(C)C)c2)c1` with human OX2R (Homo sapiens); value = <5%

* * *

Recorded Response (%) OX2R by entry
# system tested: human OX2R (Homo sapiens)
# Construct: expressed in transfected cells; host or cells: CHO (Chinese hamster ovary) cells, line CHOOX2R, co-expressing NFAT-luciferase
# protocol text: Agonist activity against OX2R: intracellular calcium (Fura-2AM, FDSS7000) in CHOOX2R cells
# Type: cell-based
# condition info: test compound 1.0 μM; relative to orexin-A as full agonist (100%)

Answered examples (5):
COc1ccc(C(=O)NCc2cccnc2)cc1S(=O)(=O)Nc1cccc(NC(=O)Nc2ccc(N(C)C)cc2)c1	6%
COc1cccc(S(=O)(=O)Nc2cccc(NS(=O)(=O)c3cc(-c4cccc(C(=O)N(C)C)c4)ccc3OC)c2)c1	<5%
COc1ccc(-c2cccc(C(=O)N(C)C)c2)cc1S(=O)(=O)Nc1cccc(NC(=O)N(C)c2cccc(N(C)C)c2)c1	90%
C=CC(=O)NCCN(C(=O)C=C)c1cccc(NS(=O)(=O)c2cc(-c3cccc(C(=O)N(C)C)c3)ccc2OC)c1	<5%
COc1ccc(Nc2c(Nc3cccc(NS(=O)(=O)c4cc(-c5cccc(C(=O)N(C)C)c5)ccc4OC)c3)c(=O)c2=O)cc1	<5%

Record `COc1ccc(C(=O)N(C)C)cc1S(=O)(=O)Nc1cccc(NC(=O)Nc2ccccc2N(C)C)c1` . Reported Response (%) OX2R: <5%

* * *

# system tested: human OX1R (Homo sapiens, UniProt O43613)
# Construct: expressed in transfected cells; host or cells: CHO (Chinese hamster ovary) cells, line CHOOX1R, co-expressing NFAT-luciferase
# Sequence (O43613 whole entry): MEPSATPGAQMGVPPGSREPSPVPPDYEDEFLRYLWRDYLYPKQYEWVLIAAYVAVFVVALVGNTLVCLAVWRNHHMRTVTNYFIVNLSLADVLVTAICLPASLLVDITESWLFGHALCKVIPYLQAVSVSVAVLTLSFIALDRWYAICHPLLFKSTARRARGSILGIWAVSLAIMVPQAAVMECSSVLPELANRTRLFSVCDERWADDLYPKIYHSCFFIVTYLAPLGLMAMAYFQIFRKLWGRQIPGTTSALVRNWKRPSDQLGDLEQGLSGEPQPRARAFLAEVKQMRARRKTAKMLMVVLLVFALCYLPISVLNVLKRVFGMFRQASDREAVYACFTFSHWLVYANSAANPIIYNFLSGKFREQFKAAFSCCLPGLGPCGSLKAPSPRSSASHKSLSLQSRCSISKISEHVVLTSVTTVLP
# protocol text: Agonist activity against OX1R: intracellular calcium (Fura-2AM, FDSS7000) in CHOOX1R cells
# Type: cell-based
# condition info: 1.0 μM test compound; relative to orexin-A as full agonist (100%)
reported metric: Response (%) OX1R

COc1ccc(-c2cccc(C(=O)N(C)C)c2)cc1S(=O)(=O)Nc1cccc(NC(=O)c2ccncc2)c1	8%
COC(=O)c1cccc(NC(=O)Nc2cccc(NS(=O)(=O)c3cc(-c4cccc(C(=O)N(C)C)c4)ccc3OC)c2)c1	<5%
COc1ccc(-c2cccc(C(=O)N(C)C)c2)cc1S(=O)(=O)Nc1cccc(NC(=O)Nc2ccc(N(C)C)cc2)c1	<5%
COc1ccc(-c2cccc(C(=O)N(C)C)c2)cc1S(=O)(=O)Nc1cccc(NC(=O)Nc2cc(OC)c(OC)c(OC)c2)c1	<5%
COc1ccccc1C(=O)Nc1cccc(NS(=O)(=O)c2cc(-c3cccc(C(=O)N(C)C)c3)ccc2OC)c1	<5%

Record `COc1ccc(-c2cccc(C(=O)N(C)C)c2)cc1S(=O)(=O)Nc1cccc(NC(=O)c2ccc(C)cc2)c1` . Reported Response (%) OX1R: <5%

* * *

# system tested: human OX2R (Homo sapiens)
# Construct: expressed in transfected cells; host or cells: CHO (Chinese hamster ovary) cells, line CHOOX2R, co-expressing NFAT-luciferase
# protocol text: Agonist activity against OX2R: intracellular calcium (Fura-2AM, FDSS7000) in CHOOX2R cells
# Type: cell-based
# condition info: 1.0 μM test compound; relative to orexin-A as full agonist (100%)
Recorded Response (%) OX2R by entry
Provide the reading as a plain figure in %.

Answered examples (3):
COc1ccc(-c2cccc(C(=O)N(C)C)c2)cc1S(=O)(=O)Nc1cccc(NC(=O)c2cccc3ccccc23)c1	80
COc1ccc(-c2cccc(C(=O)N(C)C)c2)cc1S(=O)(=O)Nc1cccc(NC(=O)NCc2ccccc2)c1	70
COc1ccc(-c2cccc(C(=O)N(C)C)c2)cc1S(=O)(=O)Nc1cccc(NC(=O)Nc2ccccc2[N+](=O)[O-])c1	101

// returns Response (%) OX2R for `COc1ccc(-c2cccc(C(=O)N(C)C)c2)cc1S(=O)(=O)Nc1cccc(NC(=O)c2ccccc2)c1` with human OX2R (Homo sapiens); value = 6

// returns Response (%) OX2R for `COc1ccc(-c2cccc(C(=O)N(C)C)c2)cc1S(=O)(=O)Nc1cccc(NCc2ccccc2Br)c1` with human OX2R (Homo sapiens); value = 54

// returns Response (%) OX2R for `COc1ccc(-c2cccc(C(=O)N(C)C)c2)cc1S(=O)(=O)Nc1cccc(NC(=O)Nc2cccc(N)c2)c1` with human OX2R (Homo sapiens); value = 55

* * *

# system tested: human OX2R (Homo sapiens, UniProt O43614)
# Construct: expressed in transfected cells; host or cells: CHO (Chinese hamster ovary) cells, line CHOOX2R, co-expressing NFAT-luciferase
# Sequence (O43614 1-444): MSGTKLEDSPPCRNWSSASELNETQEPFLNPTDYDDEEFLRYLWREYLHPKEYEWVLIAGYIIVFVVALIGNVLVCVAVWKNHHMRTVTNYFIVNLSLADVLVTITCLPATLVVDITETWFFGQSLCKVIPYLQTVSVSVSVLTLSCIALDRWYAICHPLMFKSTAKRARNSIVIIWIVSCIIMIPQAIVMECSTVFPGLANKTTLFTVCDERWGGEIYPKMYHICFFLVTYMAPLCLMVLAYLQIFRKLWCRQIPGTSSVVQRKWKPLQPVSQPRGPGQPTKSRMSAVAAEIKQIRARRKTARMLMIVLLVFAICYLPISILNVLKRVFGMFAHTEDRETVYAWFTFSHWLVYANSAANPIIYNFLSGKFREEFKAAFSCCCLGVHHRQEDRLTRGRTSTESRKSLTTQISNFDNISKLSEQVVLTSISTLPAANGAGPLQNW
# protocol text: Agonist activity against OX2R: intracellular calcium (Fura-2AM, FDSS7000) in CHOOX2R cells
# Assay type: cell-based
# condition info: 1.0 μM test compound; relative to orexin-A as full agonist (100%)
Recorded Response (%) OX2R by entry
Provide the reading as a plain figure in %.

Answered examples (2):
COc1ccc(CNc2cccc(NS(=O)(=O)c3cc(-c4cccc(C(=O)N(C)C)c4)ccc3OC)c2)cc1	61
COc1ccc(-c2cccc(C(=O)N(C)C)c2)cc1S(=O)(=O)Nc1cccc(Nc2cccc(C(F)(F)F)c2)c1	35

Alright, here's another compound for you.
Record `COc1ccc(-c2cccc(C(=O)N(C)C)c2)cc1S(=O)(=O)Nc1cccc(NCc2ccccc2O)c1` . Reported Response (%) OX2R: 51

* * *

Recorded Response (%) OX2R by entry
# system tested: human OX2R (Homo sapiens)
# Construct: expressed in transfected cells; host or cells: CHO (Chinese hamster ovary) cells, line CHOOX2R, co-expressing NFAT-luciferase
# Sequence (O43614 1-444): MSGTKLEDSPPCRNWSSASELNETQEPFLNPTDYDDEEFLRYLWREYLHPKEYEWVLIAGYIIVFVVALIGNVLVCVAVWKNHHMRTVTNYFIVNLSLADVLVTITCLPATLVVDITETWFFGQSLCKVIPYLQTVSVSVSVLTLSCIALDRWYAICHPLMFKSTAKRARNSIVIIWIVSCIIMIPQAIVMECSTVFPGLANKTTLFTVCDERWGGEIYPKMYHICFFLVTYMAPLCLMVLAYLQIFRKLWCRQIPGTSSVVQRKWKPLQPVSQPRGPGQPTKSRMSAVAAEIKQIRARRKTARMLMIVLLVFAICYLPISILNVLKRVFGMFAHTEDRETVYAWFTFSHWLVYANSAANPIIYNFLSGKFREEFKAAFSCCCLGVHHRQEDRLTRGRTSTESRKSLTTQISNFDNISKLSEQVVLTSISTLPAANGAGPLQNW
# protocol text: Agonist activity against OX2R: intracellular calcium (Fura-2AM, FDSS7000) in CHOOX2R cells
# Type: cell-based
# condition info: 1.0 μM test compound; relative to orexin-A as full agonist (100%)

Answered examples (2):
COc1ccc(-c2cccc(C(=O)N(C)C)c2)cc1S(=O)(=O)Nc1cccc(NC(=O)Nc2ccc(NC(=N)N)cc2)c1	<5%
COc1ccc(-c2cccc(C(=O)N(C)C)c2)cc1S(=O)(=O)Nc1cccc(Nc2c(OC)c(=O)c2=O)c1	<5%

Alright, here's another compound for you.
Record `COc1ccc(-c2cccc(C(=O)N(C)C)c2)cc1S(=O)(=O)Nc1cccc(NC(=O)Nc2cccc(NC(=NC(=O)OC(C)(C)C)NC(=O)OC(C)(C)C)c2)c1` . Reported Response (%) OX2R: <5%
